B1: tRNA (parent)
chain: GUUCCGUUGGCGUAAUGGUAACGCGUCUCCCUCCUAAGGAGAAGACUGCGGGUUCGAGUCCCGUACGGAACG

Variants of: B1
Experiment: yeast fitness, log relative to wild type (ln ratio); higher = fitter; tRNA-Arg(CCU), competitive growth, 37 C, 1 M NaCl
Readout Kind: yeast fitness (ln)
The answer should be a number; do not append a unit.

Consider the variant AUUCCGUUGGCGUAAUGGUAACGCGUCUCCCUCCUAAGGAGACGAUUGCGGGUUCGAGUCCCGUACGGAUUG [G1A A43C C46U A70U C71U] and give its measured yeast fitness (ln).
-0.116

Consider the variant ACUCCAUUGGCGUAAUGGUAACGCGUUUCCCUCCUAAGGAGAAGAUUGCGGGUUCGAGUCCCGUAUGGAAUG [G1A U2C G6A C27U C46U C66U C71U] and give its measured yeast fitness (ln).
-0.348

Consider the variant ACUCCGUUGGCGUAAUGGUAACGCGUUUCCCUCCUAAGGAGACGACUGCGGGUUCGAGUCCCGUACGGGUCG [G1A U2C C27U A43C A69G A70U] and give its measured yeast fitness (ln).
-0.307

Consider the variant GUUCCUUUGGCGUAAUGGUAACGCGUCUCCCUCCUAAGGAGAAGAUUGCGGGUUCGAGUCCCGUAAGGGUUG [G6U C46U C66A A69G A70U C71U] and give its measured yeast fitness (ln).
-0.418

Consider the variant GGUCCUUUGGCGUAAUGGUAACGCGUCUCCCUCCUAAGGAGAAGAUUGCGGGUUCGAGUCCCGUAUGGAAUG [U2G G6U C46U C66U C71U] and give its measured yeast fitness (ln).
-0.2

Consider the variant GUUCCGUUGGCGUAAUGGUAACGCGUCUCCCUCCUAAGGAGAAGAUUGCGGGUUCGAGUCCCGUAAGGAGCG [C46U C66A A70G] and give its measured yeast fitness (ln).
-0.0456

Consider the variant AUUCCGUUGGCGUAAUGGUAACGCGUUUCCCUCCUAAGGAGAAGAUUGCGGGUUCGAGUCCCGUAAGGAUUG [G1A C27U C46U C66A A70U C71U] and give its measured yeast fitness (ln).
-0.208

Consider the variant AGUCCGUUGGCGUAAUGGUAACGCGUCUCCCUCCUAAGGAGAAGACUGCGGGUUCGAGUCCCGUAAGGAACG [G1A U2G C66A] and give its measured yeast fitness (ln).
-0.0852

Consider the variant AGUCCGUUGGCGUAAUGGUAACGCGUUUCCCUCCUAAGGAGAAGAUUGCGGGUUCGAGUCCCGUAUGGGGCG [G1A U2G C27U C46U C66U A69G A70G] and give its measured yeast fitness (ln).
-0.231

Consider the variant ACUCCGUUGGCGUAAUGGUAACGCGUCUCCCUCCUAAGGAGACGACUGCGGGUUCGAGUCCCGUACGGAUCG [G1A U2C A43C A70U] and give its measured yeast fitness (ln).
-0.108

Consider the variant AGUCCGUUGGCGUAAUGGUAACGCGUCUCCCUCCUAAGGAGAAGAUUGCGGGUUCGAGUCCCGUACGGAGCG [G1A U2G C46U A70G] and give its measured yeast fitness (ln).
-0.103

Consider the variant GCUCCAUUGGCGUAAUGGUAACGCGUCUCCCUCCUAAGGAGACGACUGCGGGUUCGAGUCCCGUACGGAGCG [U2C G6A A43C A70G] and give its measured yeast fitness (ln).
-0.231

Consider the variant GCUCCUUUGGCGUAAUGGUAACGCGUCUCCCUCCUAAGGAGACGAUUGCGGGUUCGAGUCCCGUAAGGAGUG [U2C G6U A43C C46U C66A A70G C71U] and give its measured yeast fitness (ln).
0.00139

Consider the variant GCUCCUUUGGCGUAAUGGUAACGCGUUUCCCUCCUAAGGAGAAGACUGCGGGUUCGAGUCCCGUAUGGAUCG [U2C G6U C27U C66U A70U] and give its measured yeast fitness (ln).
-0.194

Consider the variant GGUCCGUUGGCGUAAUGGUAACGCGUCUCCCUCCUAAGGAGACGACUGCGGGUUCGAGUCCCGUAAGGAGUG [U2G A43C C66A A70G C71U] and give its measured yeast fitness (ln).
-0.237

Consider the variant GUUCCUUUGGCGUAAUGGUAACGCGUCUCCCUCCUAAGGAGACGAUUGCGGGUUCGAGUCCCGUAAGGGAUG [G6U A43C C46U C66A A69G C71U] and give its measured yeast fitness (ln).
-0.548

Consider the variant GUUCCUUUGGCGUAAUGGUAACGCGUUUCCCUCCUAAGGAGACGACUGCGGGUUCGAGUCCCGUAUGGGGCG [G6U C27U A43C C66U A69G A70G] and give its measured yeast fitness (ln).
-0.528

Consider the variant AGUCCGUUGGCGUAAUGGUAACGCGUCUCCCUCCUAAGGAGAAGAUUGCGGGUUCGAGUCCCGUACGGAAUG [G1A U2G C46U C71U] and give its measured yeast fitness (ln).
-0.25

Consider the variant AGUCCGUUGGCGUAAUGGUAACGCGUUUCCCUCCUAAGGAGAAGACUGCGGGUUCGAGUCCCGUAAGGAUCG [G1A U2G C27U C66A A70U] and give its measured yeast fitness (ln).
-0.165

Consider the variant GUUCCUUUGGCGUAAUGGUAACGCGUCUCCCUCCUAAGGAGAAGAUUGCGGGUUCGAGUCCCGUAUGGGGUG [G6U C46U C66U A69G A70G C71U] and give its measured yeast fitness (ln).
-0.205

Consider the variant GCUCCGUUGGCGUAAUGGUAACGCGUUUCCCUCCUAAGGAGAAGAUUGCGGGUUCGAGUCCCGUAAGGAGCG [U2C C27U C46U C66A A70G] and give its measured yeast fitness (ln).
-0.137

Consider the variant GUUCCUUUGGCGUAAUGGUAACGCGUUUCCCUCCUAAGGAGACGAUUGCGGGUUCGAGUCCCGUAUGGGUUG [G6U C27U A43C C46U C66U A69G A70U C71U] and give its measured yeast fitness (ln).
-0.535
